Biological target: Serine/threonine-protein kinase 17A (Homo sapiens)
Sequence (Q9UEE5 whole entry): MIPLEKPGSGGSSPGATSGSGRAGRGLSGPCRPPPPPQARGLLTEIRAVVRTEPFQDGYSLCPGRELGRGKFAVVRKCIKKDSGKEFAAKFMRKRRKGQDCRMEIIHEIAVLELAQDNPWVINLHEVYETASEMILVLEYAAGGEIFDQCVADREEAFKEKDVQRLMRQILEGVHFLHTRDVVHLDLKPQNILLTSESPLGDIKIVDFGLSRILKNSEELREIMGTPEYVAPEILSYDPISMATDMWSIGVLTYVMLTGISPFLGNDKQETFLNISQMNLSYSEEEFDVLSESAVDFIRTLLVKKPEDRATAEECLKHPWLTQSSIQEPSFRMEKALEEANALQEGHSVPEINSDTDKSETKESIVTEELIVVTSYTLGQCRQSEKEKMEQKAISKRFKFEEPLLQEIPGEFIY
measured_attribute: Kd
Answers without a unit are incomplete; give the number and then its unit.

Give the measured Kd of C[C@H](NC(=O)c1ccc2cc1OCCOCCNc1ccn3ncc-2c3n1)c1ccncc1 .
9 nM
